Tested on: T-47D breast
test-details: NCI-60 one-dose screen, 48 h (100 = growth as untreated, 0 = no growth, -100 = all killed)
condition-summary: 10 µM unless noted
The panel holds about 83,000 compounds, 20% with a hit somewhere; the sample as a whole holds those more often.
Measured growth by item
Kindly answer with a numeric value in %, unit omitted.

Let me know recorded growth for Fc1ccc(Nc2ncnc3ccc(-c4cnc5[nH]ccc5c4)cc23)cc1Cl , thanks.
-35.3

Let me know recorded growth for CC(=O)Nc1scc[n+]1Cc1ccccc1 , thanks.
102

====

Tested on: HCT-116 colon
test-details: NCI-60 one-dose screen, 48 h (100 = growth as untreated, 0 = no growth, -100 = all killed)
condition-summary: 10 µM unless noted
This is part of a sample that, as a whole, favours compounds with a hit. Of some 83,000 tested, about 20% had one in any assay.
outcome-measure: growth (%)
Kindly answer with a numeric value in %, unit omitted.

Example molecules with recorded growth:
INSERT INTO assay_data (molecule, test_result) VALUES
  ('O=S(=O)(NCCNc1nccc(-c2c(-c3ccc(F)cc3)nc3sccn23)n1)c1ccc(F)cc1', 60.4),
  ('CC(=O)c1cc2c(N)c(C(=O)Nc3cccc4c3OCCO4)sc2nc1C', 96.4),
  ('O=C1c2c(Cl)c(Cl)c(Cl)c(Cl)c2C(=O)C2(Cl)CC=CCC12Cl (stereo unspecified)', -90.2),
  ('C=C(C)[C@@H]1C[C@@H]2Cc3ccc(Cl)c(C)c3N1O2', 95.9),
  ('Fc1ccc(Nc2ncnc3ccc(-c4cnc5[nH]ccc5c4)cc23)cc1Cl', -36.3);

Let me know recorded growth for N#Cc1c(Nc2ccccc2)nc2n(c1=O)-c1ccccc1Sc1ccccc1-2 , thanks.
82.9

Let me know recorded growth for COC(=O)c1cc(=O)nc(N/N=C/c2ccco2)s1 , thanks.
93.8

Let me know recorded growth for Clc1ccc(-c2nc3ccccc3s2)cc1Cl , thanks.
99

Let me know recorded growth for O=[N+]([O-])c1cc(Cl)c2[nH]c3c(Cl)cc([N+](=O)[O-])cc3c2c1 , thanks.
2.09

Let me know recorded growth for COc1cc(NC(N)=NCCC(C)(C)c2ccc(C(F)(F)F)cc2)ncc1C#N , thanks.
-75.7

Let me know recorded growth for C=C1c2nc3ccccc3n2C=C(c2ccc(Cl)cc2)N1Cc1ccccc1 , thanks.
63

Let me know recorded growth for O=C1Nc2ccc3c(c2/C1=C\c1cc2c(cc1Br)OCO2)OCO3 , thanks.
-2.7

Let me know recorded growth for CCN(CC)CCOc1ccc(/C(=C(/C)c2ccccc2)c2ccc(OC(C)=O)cc2)cc1 , thanks.
79

Let me know recorded growth for CN1C(=O)N(C)C2C1NN=c1s/c(=C\C=C\c3ccccc3)c(=O)n12 (stereo unspecified) , thanks.
31.8

Let me know recorded growth for O=C(O)Cc1cccc(=O)c(O)c1C(=O)O , thanks.
102

Let me know recorded growth for O=C(Nc1ccc(NCCN2CCOCC2)nc1)c1ccc([N+](=O)[O-])cc1 , thanks.
97.2
